Test system: KM12 colon
Experiment: NCI-60 one-dose screen, 48 h
Conditions: 10 µM unless noted
Method: Growth inhibition of the KM12 human tumor cell line is measured as a screen for anti-cancer activity. Cells are grown in 96 well plates and exposed to the test compound for 48 hours. Compounds are tested at a single concentration, which is 10^-5 M for most compounds. The reported endpoint is percent growth (GI% or GIPRCNT), where numbers from 0 - 100% represent growth inhibition, and numbers from -100% - 0 represent cell death. For example, a value of 40 represents 60% growth inhibition. […]
The panel holds about 83,000 compounds, 20% with a hit somewhere; the sample as a whole holds those more often. Activity calls are given as the source filed them. The calls were made as follows: active = growth percent below 10; inactive = the rest.
Labels: active, inactive

compound=COc1ccc(-c2[nH]c3ccccc3c2/C=C(\C#N)S(=O)(=O)c2ccccc2)cc1 target_under_test="KM12 colon" group_label=active
compound="O=C(NOC1OC(CO)C(O)C(O)C1O)Nc1ccccc1 (configuration not stated)" target_under_test="KM12 colon" group_label=inactive
compound="CC1CCc2cc(F)cc3c(=O)c(C(=O)O)cn1c23 (configuration not stated)" target_under_test="KM12 colon" group_label=inactive
compound=Cc1ccc[n+](CC(=O)c2cccc3ccccc23)c1 target_under_test="KM12 colon" group_label=inactive
compound=COC(=O)c1oc2c(C(C)=O)c(OCCN3CCCCC3)ccc2c1C target_under_test="KM12 colon" group_label=inactive
compound=N#Cc1c(N)nc(Cl)c(C#N)c1C(=O)c1ccccc1 target_under_test="KM12 colon" group_label=inactive
compound=CN(C)CC/C=C1\c2ccccc2Sc2ccc(Cl)cc21 target_under_test="KM12 colon" group_label=inactive

---

Tested on: SF-539 CNS
Experiment: NCI-60 one-dose screen, 48 h
Settings: 10 µM unless noted
This is part of a sample that, as a whole, favours compounds with a hit. Of some 83,000 tested, about 20% had one in any assay. Calls of active or inactive are those of the source. Rule for the calls: active = growth percent below 10; inactive = the rest.
Outcome codes: active, inactive

compound=CCNC(=O)Oc1ccc(/C(=C(/CC)Cc2ccccc2)c2ccc(OCCN3CCOCC3)cc2)cc1 group_label=inactive
compound=CCCC(=O)Oc1ccc(/C(=C(\C)c2ccc(Cl)cc2)c2ccc(OCCN(CC)CC)cc2)cc1 group_label=active
compound=CCCC(C)(C)COC(=O)c1cccc(N)c1 group_label=inactive
compound="CN1CCN(CC(O)COc2c(Br)c(Br)c(Br)c3c2OC(C)(C)C3)CC1 (configuration not stated)" group_label=inactive
compound=CN(CCNCc1ccccn1)CCNCc1ccccn1 group_label=active
compound=O=C(NCCNc1nccc(-c2c(-c3cccc(O)c3)nc3sccn23)n1)c1ccccc1 group_label=inactive
compound=Cc1cc(-c2ccccc2)nc2ccccc12 group_label=inactive

---

Test system: NCI-H522 lung
Assay: NCI-60 one-dose screen, 48 h (100 = growth as untreated, 0 = no growth, -100 = all killed)
Conditions: 10 µM unless noted
This is part of a sample that, as a whole, favours compounds with a hit. Of some 83,000 tested, about 20% had one in any assay.
measure: growth (%)

compound=Cc1cccc(CC(=O)c2ccccc2)n1 measure=growth recorded_measurement=80.9
compound=O=C(Nc1ccc(F)cc1)Nc1ccc(Cl)c([N+](=O)[O-])c1 measure=growth recorded_measurement=2.42
compound="CC(C)(C)NCC(O)COc1c(Br)c(Br)c(Br)c2c1OC(C)(C)C2 (stereo not given)" measure=growth recorded_measurement=-76.8
compound=C=CC(=O)Nc1cccc(Nc2nc(Nc3ccc(OCCOC(F)F)cc3)ncc2F)c1 measure=growth recorded_measurement=-7.77
compound=NC(N)=N/N=C/c1ccc([N+](=O)[O-])cc1 measure=growth recorded_measurement=107
compound=CC(C)C(=O)Nc1nc2c(s1)CCCc1ccn(S(=O)(=O)c3ccccc3)c1-2 measure=growth recorded_measurement=70.5
compound=O=C1COc2ccccc2C(=O)N1CCCCNc1ccccc1 measure=growth recorded_measurement=68.9
compound=COC1=C(OC)C(=O)C=CC1=O measure=growth recorded_measurement=63.7
compound="CCC1CN2C(=N1)c1ccccc1-c1cc(Cl)ccc12 (stereo not given)" measure=growth recorded_measurement=-28.5
compound="O=C1OC(=O)C2C3CC(c4ccccc43)C12 (stereo not given)" measure=growth recorded_measurement=105

---

Tested on: DU-145 prostate
Experiment: NCI-60 one-dose screen, 48 h
Conditions: 10 µM unless noted
About 83,000 compounds went through this panel and 20% of them were active in at least one assay; those are over-represented in the sample as a whole. Active and inactive are the calls of the source. The calls were made as follows: active = growth percent below 10; inactive = the rest.
Outcomes: yes (1) for active, no (0) for inactive

molecule=Cc1cccc(Cc2cnc(NC(=O)CCc3ccc(C)o3)s2)c1 group_label="no (0)"
molecule=CCNC(=O)Oc1ccc(/C(=C(/CC)Cc2ccccc2)c2ccc(OCCN3CCOCC3)cc2)cc1 group_label="no (0)"
molecule="CC(=O)N1N=C(CCC(=O)c2nc3ccc([N+](=O)[O-])cc3[nH]2)OC1c1ccc(O)cc1 (stereo not drawn)" group_label="no (0)"
molecule=CC(=O)c1cc2c(N)c(C(=O)Nc3cccc(Cl)c3)sc2nc1C group_label="no (0)"
molecule=COc1ccc(-c2cc(-c3nnc(SC/C(=N\O)c4ccccc4)n3-c3ccccc3)c3ccccc3n2)cc1 group_label="no (0)"
molecule=Cc1cc(NCCN(C(C)C)C(C)C)nc(/N=C(\N)Nc2ccc(Cl)c(C(F)(F)F)c2)n1 group_label="yes (1)"
molecule=COc1ccc(-c2nnc(SCC(=O)Nc3ccc(C(=O)/C=C/c4ccccc4)cc3)o2)cc1OC group_label="no (0)"
molecule=Nc1nc(-c2cc3c(cc2Cl)NC(=O)/C3=C/c2ccccc2)cs1 group_label="no (0)"
molecule=CN(C)c1ccc(/C=c2\s/c(=C\C(=O)C(C)(C)C)[nH]c2=O)cc1 group_label="no (0)"
molecule=O=C(Nc1cccc(-n2ccc3c(NC(=O)c4ccccc4)nccc32)c1)Nc1ccc(Cl)c(C(F)(F)F)c1 group_label="yes (1)"
molecule=CN(C)CC/C=C1\c2ccccc2Sc2ccc(Cl)cc21 group_label="no (0)"
molecule=CCc1c(C)c2cc3c(c(C)c2oc1=O)OCC(=O)N3 group_label="no (0)"
molecule=O=C(Cn1c2ccccc2c2ccncc21)N/N=C/c1cc(O)c(O)c(O)c1 group_label="no (0)"

---

Test system: K-562 leukemia
Test: NCI-60 one-dose screen, 48 h (100 = growth as untreated, 0 = no growth, -100 = all killed)
Conditions: 10 µM unless noted
About 83,000 compounds went through this panel and 20% of them were active in at least one assay; those are over-represented in the sample as a whole.
Listed here: items and their measured growth.
measure: growth (%)

compound=CCNc1ncnc2n[nH]nc12 measure=growth recorded_measurement=97
compound=C[C@H]1C=C(C[C@@H](O)CC#CC#CCCCCC[C@@H](O)[C@H]2CCC(=O)O2)C(=O)O1 measure=growth recorded_measurement=86.3
compound="S=C=NP1(N=C=S)=NP(N=C=S)(N=C=S)=NP(N=C=S)(N=C=S)=NP(N=C=S)(N=C=S)=N1 (centres undefined)" measure=growth recorded_measurement=86.4
compound=Fc1ccc(/C=N/n2c(-c3cc(Cl)cc(Cl)c3Cl)nn(CNc3ccc(Cl)nn3)c2=S)cc1 measure=growth recorded_measurement=85.8

---

System: ACHN renal
Test: NCI-60 one-dose screen, 48 h (100 = growth as untreated, 0 = no growth, -100 = all killed)
Conditions: 10 µM unless noted
Compounds without any hit were thinned out: in the full panel of roughly 83,000, 20% have a hit. Active and inactive are the calls of the source. How the source made its calls: active means growth percent below 10; inactive means the rest.
growth: recorded values
measure: growth

molecule=COc1cc(-c2nc3sc(C)cn3c2/C=C2\C(=O)Nc3ccccc32)c(Br)c(OC)c1OC measure=growth recorded_measurement="57% (inactive)"
molecule=CC(=S)Nc1ccccc1 measure=growth recorded_measurement="97.4% (inactive)"
molecule=COc1cc(-c2nc(SCC(=O)Nc3ccc(C(C)=O)cc3)[nH]c(=O)c2C#N)cc(OC)c1OC measure=growth recorded_measurement="41.6% (inactive)"
molecule=Nn1c(SCC(=O)Nc2cc(Cl)c(Cl)cc2Cl)nnc1-c1cc(F)c(Cl)cc1Cl measure=growth recorded_measurement="210% (inactive)"
molecule="COc1ccccc1N1CCN(CC(O)COc2c(Br)c(Br)c(Br)c3c2OC(C)(C)C3)CC1 (stereo unspecified)" measure=growth recorded_measurement="56.1% (inactive)"
molecule=CCOC(=O)c1cnc2c(OC)ccc(OC)c2c1Cl measure=growth recorded_measurement="100% (inactive)"

---

System: MCF7 breast
Assay: NCI-60 one-dose screen, 48 h
Details: 10 µM unless noted
The panel holds about 83,000 compounds, 20% with a hit somewhere; the sample as a whole holds those more often. Active and inactive are the calls of the source. How the source made its calls: active means growth percent below 10; inactive means the rest.
Outcome codes: active, inactive

smiles_entry=C=C1C(=O)O[C@H]2[C@H]1CC/C(COC(=O)c1ccccc1)=C\CC[C@@]1(C)O[C@@H]21 group_label=active
smiles_entry=COc1cc2c(cc1OC)-c1c(oc3c4c(ccc3c1=O)OC(C)(C)C=C4)CO2 group_label=inactive
smiles_entry=O=C(Nc1ccc(-n2cc(-c3ccncc3)c(-c3ccc(O)c(Cl)c3)n2)cc1)Nc1ccc(Cl)c(C(F)(F)F)c1 group_label=inactive
